Reported IC50 values for a set of compounds
Target: UniProt P25103
Sequence (P25103 whole entry): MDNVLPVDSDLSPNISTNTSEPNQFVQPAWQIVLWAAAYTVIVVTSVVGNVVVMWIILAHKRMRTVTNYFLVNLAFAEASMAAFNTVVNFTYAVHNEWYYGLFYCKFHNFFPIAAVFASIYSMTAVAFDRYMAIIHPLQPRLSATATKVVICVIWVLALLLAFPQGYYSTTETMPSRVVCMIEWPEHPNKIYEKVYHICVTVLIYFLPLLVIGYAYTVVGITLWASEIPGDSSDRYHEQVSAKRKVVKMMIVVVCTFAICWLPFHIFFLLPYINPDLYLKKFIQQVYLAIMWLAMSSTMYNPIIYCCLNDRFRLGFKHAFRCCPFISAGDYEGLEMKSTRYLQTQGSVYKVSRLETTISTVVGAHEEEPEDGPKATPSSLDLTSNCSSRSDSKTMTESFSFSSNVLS
Assay: Affinity for human NK1 receptor (125I-substance P receptor binding test, membrane fraction)
Conditions: membrane fraction of human NK1 receptor-expressing 293T cells; read-out: IC50 (nM), concentration required for 50% inhibition of 125I-substance P binding
Just the number in nM, nothing appended.

Cc1cc(F)ccc1-c1cc(C2CCC(C(=O)O)CC2)ncc1N(C)C(=O)C(C)(C)c1cc(C(F)(F)F)cc(C(F)(F)F)c1 (stereo not drawn) [Example 1] :: 1.45
Cc1cc(F)ccc1-c1cc(C2CCC(C(C)C(=O)O)CC2)ncc1N(C)C(=O)C(C)(C)c1cc(C(F)(F)F)cc(C(F)(F)F)c1 (stereo not drawn) [Example 10] :: 2.79

Okay, now this compound:
Inquiry: Enter recorded IC50 with UniProt P25103 for Cc1cc(F)ccc1-c1cc(C2CCC(CC(=O)O)CC2)nc(C)c1N(C)C(=O)C(C)(C)c1cc(C(F)(F)F)cc(C(F)(F)F)c1 (stereo not drawn) [Example 18] here.
Reply text: 6.45
